Hello, the source for this data is the Human Domainome abundance scans (Beltran et al. 2025), in case you need it.

B1: Homeobox protein cut-like 1, residues 548 to 629; numbered along this chain, P39880 (parent)
chain: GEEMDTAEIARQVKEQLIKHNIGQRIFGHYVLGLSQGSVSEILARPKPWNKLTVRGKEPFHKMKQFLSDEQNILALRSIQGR

Variants of: B1
experimentNotes: abundance fitness (aPCA) (normalised: wild type 0, dead -1); higher = more abundant; growth selection in yeast, the domain comes from the species named
conditionInfo: Homo sapiens
A collection of variants and their measured abundance fitness

QUERY: Could you please provide reported abundance fitness for GEEMDTAEIARQVKEQLIKHAIGQRIFGHYVLGLSQGSVSEILARPKPWNKLTVRGKEPFHKMKQFLSDEQNILALRSIQGR [N21A] ? Thanks!
RESULT: -0.151

QUERY: Output measured abundance fitness for this item: GEEMDTAEIARQVKEQLIKHNIGQRIFGHYVLGLSTGSVSEILARPKPWNKLTVRGKEPFHKMKQFLSDEQNILALRSIQGR [Q36T]
RESULT: -0.034

QUERY: Tell us which abundance fitness value is on record for GEEMDTAEIARQVKEQLIKHNIGQRIFGHYVLGLSQGSVSEILARPKPWNKLTVRGKEPFHKMKQFLSDEQNILALQSIQGR [R77Q]
RESULT: 0.018

QUERY: Provide only the value of recorded abundance fitness for GEEMDTAEIARQVKEQLIKHNIGQRIFGHYVLGLSQGSVSEILARPKPWNKLTVRGKEPFHKMKQFLSNEQNILALRSIQGR [D69N]
RESULT: -0.015

QUERY: Input GEEMNTAEIARQVKEQLIKHNIGQRIFGHYVLGLSQGSVSEILARPKPWNKLTVRGKEPFHKMKQFLSDEQNILALRSIQGR [D5N] , output reported abundance fitness.
RESULT: -0.076

QUERY: Hello, please tell me recorded abundance fitness for this one: GEEMDTAEIARQVKEQLIKHNIGQRIFGHYVLGLSQGSVSEILARPKPWNKLTVRGKRPFHKMKQFLSDEQNILALRSIQGR [E58R]
RESULT: -0.273

QUERY: Please indicate abundance fitness recorded for GEEMDTAEIARQVKEQLIKHNIGQRIFGHIVLGLSQGSVSEILARPKPWNKLTVRGKEPFHKMKQFLSDEQNILALRSIQGR [Y30I]
RESULT: -0.024

QUERY: Return reported abundance fitness. Input variant: GEEMDTAEIARQVKEQLIKHNIGQRIFGHYVLGLSQGSVSEICARPKPWNKLTVRGKEPFHKMKQFLSDEQNILALRSIQGR [L43C]
RESULT: -0.843

QUERY: Give me measured abundance fitness, please, for this variant: GEEMDTAEIARQVKEQLSKHNIGQRIFGHYVLGLSQGSVSEILARPKPWNKLTVRGKEPFHKMKQFLSDEQNILALRSIQGR [I18S]
RESULT: 0.014

QUERY: Supply abundance fitness value. Item: GEEMDTAEIARQVKEQLIKHNIGQRIFGHYVLGLSQGSVSEILARPKPWNKLTVRGKEPFHKMKKFLSDEQNILALRSIQGR [Q65K]
RESULT: -0.076

QUERY: For the variant GEEMDTAEIARQVKEQLIKHNIGQRIFGHYCLGLSQGSVSEILARPKPWNKLTVRGKEPFHKMKQFLSDEQNILALRSIQGR [V31C] , report abundance fitness.
RESULT: -0.179

QUERY: # return recorded abundance fitness for entry GEEMDTAEIARQVKEQLIKHNIGQRIFGHYVLGLSQGSVSEILARPKPWNKLTVRGKEPFHKMKQFLSDEQNILALFSIQGR [R77F]
RESULT: -0.511
